Each recorded value in this set is attributed to patent US20260263448A1.

Assay: Solubility at different pH values (37° C.)
Type: physicochemical
Details: aqueous buffer; pH = 4.4, 37° C.; read-out: Solubility (average, mg/ml)
measure: solubility (mg/mL)

                                   compound     measure  result_units  observed_measurement
0  CN(C)C(=O)N[C@H]1CC[C@H](CCN2CCN(c3cccc(Cl)c3Cl)CC2)CC1 [Cariprazine base]  solubility         mg/mL                 0.357

---

Experiment: Solubility at different pH values (37° C.)
Format: physicochemical
Settings: aqueous buffer; pH = 7.5, 37° C.; read-out: Solubility (average, mg/ml)
Structures can show the parent of a compound that is named as a salt.
measure: solubility

>>> print(df.to_string())
                                   compound  observed_measurement
0  CN(C)C(=O)N[C@H]1CC[C@H](CCN2CCN(c3cccc(Cl)c3Cl)CC2)CC1 [Cariprazine hydrochloride]           0.001 mg/mL
